inhibition at 20 µM reference
- Test system: Plasmodium falciparum 3D7 asexual blood stage
- assay.name: microbe, parasite or virus in culture
- condition.context: 3D7, read-out: percent inhibition at the top screening dose, P. falciparum 3D7 ABS

Solved entries (count: 4):
INSERT INTO assay_data (compound, test_readout, measurement) VALUES
  ('C[C@@H]1[C@H](O)[C@@H](C)/C=C/C=C/C=C/C=C/C=C/C=C/C=C/[C@H](O[C@@H]2O[C@H](C)[C@@H](O)[C@H](N)[C@@H]2O)C[C@@H]2O[C@](O)(C[C@@H](O)C[C@@H](O)[C@H](O)CC[C@@H](O)C[C@@H](O)CC(=O)O[C@H]1C)C[C@H](O)[C@H]2C(=O)O', 'inhibition at 20 µM', '87%'),
  ('C[C@H]1c2cccc(O)c2C(=O)C2=C(O)[C@]3(O)C(=O)C(C(N)=O)=C(O)[C@@H](N(C)C)[C@@H]3[C@@H](O)[C@@H]21 [Doxycycline, reference compound]', 'inhibition at 20 µM', '90%'),
  ('COc1nc2ccc(Br)cc2cc1[C@@H](c1ccccc1)[C@@](O)(CCN(C)C)c1cccc2ccccc12 [Bedaquiline, reference compound]', 'inhibition at 20 µM', '91%'),
  ('CC(C)/N=c1\cc2n(-c3ccc(Cl)cc3)c3ccccc3nc-2cc1Nc1ccc(Cl)cc1 [Clofazimine, reference compound]', 'inhibition at 20 µM', '84%');

Consider the record given below.
Kindly state the measured inhibition at 20 µM obtained for COc1cc(NC(C)CCCN)c2ncccc2c1 (centres unmarked) [Primaquine, reference compound] with Plasmodium falciparum 3D7 asexual blood stage.
91%

----------
- Tested on: NF54-pfs16-LUC-GFP stage IV gametocytes
- assay.name: Plasmodium falciparum late stage gametocyte (LSG) image-based assay
- Format: cell-based
- condition.context: Plasmodium falciparum, NF54, read-out: Pf Stage IV GAMS Discovery Biology IC50 µM, stage IV gametocytes, Discovery Biology
Binary call on IC50 with cut-off 3 µM: strictly below means Y, and equality or higher means N.

Please determine if O=C(Nc1ccc(N2CCNCC2)cc1)c1ccn2ncc(-c3cccc(Cl)c3)c2n1 [MMV022478] is below 3 µM in terms of IC50.
Y

Do the same for CN(C(=O)c1cc2c(-c3cncnc3)cccc2[nH]1)c1ccccc1 [MMV024443] please
Y

Do the same for Cc1cnc(N2CCN[C@@H](Cc3ccccc3)C2)nc1Oc1ccc(-n2ccnc2)cc1 [MMV687765] please
N

Do the same for COc1cccc(-n2nnnc2S(C)(=O)=O)c1 [MMV272144] please
Y

Do the same for COc1cccc(CC(=O)N2CCC(n3c(C)nc4ccc(F)cc43)CC2)c1 [MMV020081] please
Y

Do the same for O=C(Nc1ccc(C(F)(F)F)c(C(F)(F)F)c1)c1cc(Cl)ccc1O [MMV687807] please
N

Data provenance is paper PMC5571359.
